assay: small-molecule microarray binders of probe aXIP, primary screen, biochemical, NeuroSMM set, 635/667 nm fluorescence (AID 1119); conditions: higher = more signal, called active from +8 up or from −8 down;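 note: probe is the protein aXip251-270 applied at 1 µg/mL to compound-printed slides; binding of probe to printed compounds measured as 667 nm fluorescence plus signal to noise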
Is composite Z-score at least 0.2? Then True. If not, False.

Take a look at these entries with their results.
molecule | labelClass
COc1ccc([Si](C)(C)[C@@H]2[C@@H](CCO)O[C@]3(C(=O)N(Cc4cccc(N5C(=O)c6ccccc6Oc6ccccc65)c4)c4ccccc43)[C@H]2C)cc1 | False
Cc1ccc(F)cc1S(=O)(=O)N[C@@H]1CCN(Cc2ccc(Oc3ccccc3)cc2)C1 | False
C=CCC(OC(C)=O)[C@@H]1[C@@H](N(Cc2cc3ccccc3o2)C(=O)Cc2ccc(F)cc2)c2cc(OCCCO)ccc2N1C(=O)c1ccc2ccccc2n1 (stereo partly drawn) | False
COCCCNC(=O)[C@]1(Cc2ccccc2CN=[N+]=[N-])N=C(c2ccc(OCCCO)cc2)O[C@@H]1c1ccccc1 | False
Cc1ccc(S[C@]2(C(=O)NCc3ccccc3)CC(=O)N(C(C)C)[C@@H]2c2ccc(CO)cc2I)cc1 | True
CC=CC(O)C1C=CC2C(=O)N(C)C(=O)C2N1Nc1ccc([N+](=O)[O-])cc1[N+](=O)[O-] (stereo not drawn) | True
COCCOC(=O)N1C(=O)[C@@]2(c3cc(C#CC4=CCCCC4)ccc31)[C@H](C(=O)N1CCN(c3ncccn3)CC1)[C@H]1C(=O)O[C@H](c3ccccc3)[C@H](c3ccccc3)N1[C@@H]2c1ccc(O)cc1 | True
COc1ccc([Si](C)(C)[C@@H]2[C@@H](CCO)O[C@]3(C(=O)N(Cc4cccc(N5C(=O)c6cccc7cccc5c67)c4)c4ccccc43)[C@H]2C)cc1 | False

Ask | Form field: composite Z-score at least 0.2? Entry: C[C@]1(C(=O)NC2CC2)c2ccccc2C(=O)N(Cc2ccc(OC(F)(F)F)cc2)[C@H]1c1ccc(CO)cc1
Reply | False

Ask | Form field: composite Z-score at least 0.2? Entry: CON(C)C(=O)C=C1C[C@@H](c2cccc(Cl)c2)O[C@@H](c2cccc(Cl)c2)O1
Reply | True

----------
experiment: binders of probe aFGF2 on microarray, primary screen, stem cell growth factor project, biochemical, small-molecule microarray, fluorescence 635/667 (AID 1067); settings: higher = more signal;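 note: measures binding of biotinylated aFGF2 protein to printed compounds on slides; z-score merges feature fluorescence and signal-to-noise across triplicate slides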
Reported composite z-score values are given for each entry in this list.
Quick one: just the number, no unit, thanks!

These solved cases illustrate the format of a correct answer.
smilesRecord | composite z-score
CO[C@H]1O[C@H](CO)[C@@H](OC(=O)c2ccc(Br)cc2)[C@@H]2OC(=O)[C@@H](Cc3ccc4ccccc4c3)C/C=C/C[C@H](Cc3ccc4ccccc4c3)C(=O)O[C@@H]12 | 0.0289
CC(C)CN1C(=O)[C@@]2(Cc3ccccc31)c1ccccc1C(=O)N(Cc1ccccc1C(F)(F)F)[C@H]2c1ccc(CO)cc1 | -0.167

Ask | Dear colleague, I am looking for the recorded composite z-score of the following compound: CC(C)CNC(=O)[C@@H]1c2ccccc2C(=O)N(Cc2cc(F)cc(C(F)(F)F)c2)[C@H]1c1ccc(CO)cc1
Reply | 0.0079

----------
assay: compound binding in COS7 lysate, probe aLAP1, primary screen, cell lysate, small-molecule microarray (AID 1124); conditions: probe aLAP1, fluorescence, higher = more signal;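 note: lysate comes from COS7 cells expressing LAP1 and is applied at 0.3 µg/mL; score merges spot fluorescence near 667 nm with signal-to-noise over triplicate slides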
experimentalEndpoint: composite z-score

compound | composite z-score
COc1ccc([Si](C)(C)[C@@H]2[C@@H](CCn3cc([C@H](O)c4ccccc4)nn3)O[C@]3(C(=O)N(Cc4ccc(N5CCOC5=O)cc4)c4ccccc43)[C@H]2C)cc1 | 0.664
[N-]=[N+]=Nc1ccccc1C[C@]1(C(=O)NCc2ccccc2)N=C(c2ccc(OCCCO)cc2)O[C@H]1c1ccccc1 | 0.373
O=C1NC(=O)C2C1C=CC(C(O)c1c(F)cccc1Cl)N2Nc1ccccn1 (centres undefined) | 1

Ask | Dear colleague, I am looking for the recorded composite z-score of the following compound: COc1ccc(C(O)C2C=CC3C(=O)N(C)C(=O)C3N2N2CCCCC2)cc1 (centres undefined)
Reply | 0.986

----------
Reported composite z-score values are given for each entry in this list.
biological target: E3 ubiquitin-protein ligase XIAP (Homo sapiens) (UniProt P98170); assay: XIAP binders, primary screen, biophysical, small-molecule microarray, fluorescence 635 nm (AID 1181); details: small-molecule microarray binding, higher = more signal;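 note: score merges 667 nm emission and signal to noise over triplicate slides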
Sequence (P98170 whole entry, looked up): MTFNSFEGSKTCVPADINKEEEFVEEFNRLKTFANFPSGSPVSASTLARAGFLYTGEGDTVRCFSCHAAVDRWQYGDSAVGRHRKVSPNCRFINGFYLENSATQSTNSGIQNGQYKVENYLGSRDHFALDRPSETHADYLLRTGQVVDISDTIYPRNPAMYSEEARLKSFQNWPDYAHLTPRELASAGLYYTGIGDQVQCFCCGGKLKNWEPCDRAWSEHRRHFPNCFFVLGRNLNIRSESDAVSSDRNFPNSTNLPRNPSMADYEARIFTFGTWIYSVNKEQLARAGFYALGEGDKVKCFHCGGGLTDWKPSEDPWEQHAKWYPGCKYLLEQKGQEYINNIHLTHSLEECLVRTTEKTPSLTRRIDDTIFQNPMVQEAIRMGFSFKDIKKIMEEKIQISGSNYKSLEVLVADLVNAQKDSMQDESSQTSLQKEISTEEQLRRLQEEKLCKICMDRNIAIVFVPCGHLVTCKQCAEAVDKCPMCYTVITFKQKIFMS
Quick one: just the number, no unit, thanks!

These solved cases illustrate the format of a correct answer.
molecule | composite z-score
CN1C(=O)C2C=CC(C(O)Cc3ccccc3)N(N(c3ccccc3)c3ccccc3)C2C1=O (stereo not drawn) | 0.0918
CC1CC/C=C\[C@H]2OC34C=CCN(CCN5CCOCC5)C(=O)[C@H]3N(CCO)C(=O)[C@@H]4C2C(=O)O1 (stereo partly drawn) | -0.128
CN1C(=O)C2C(C1=O)C1C=C(c3ccc(CO)cc3)C2C(c2cccs2)N1Cc1cccc(OC(F)(F)F)c1 (stereo not drawn) | 0.214

Ask | Dear colleague, I am looking for the recorded composite z-score of the following molecule: O=C1NCC(=O)N2[C@@H]1C[C@@H](C(=O)O)[C@H]2c1ccc(O)cc1
Reply | 0.0374

Ask | Dear colleague, I am looking for the recorded composite z-score of the following molecule: COc1ccccc1CN1C(=O)c2ccccc2[C@](Cc2ccccc2I)(C(=O)NC(C)C)[C@@H]1c1ccc(CO)cc1
Reply | -0.253

Ask | Dear colleague, I am looking for the recorded composite z-score of the following molecule: COCCCNC(=O)[C@]1(CCC(=O)OC(C)(C)C)N=C(c2ccc(OCCCO)cc2)O[C@@H]1c1ccccc1
Reply | 0.081

Ask | Dear colleague, I am looking for the recorded composite z-score of the following molecule: CC(C)(C)OC(=O)CC[C@]1(C(=O)O)N=C(c2ccc(OCCCO)cc2)O[C@H]1c1ccccc1
Reply | -0.0594

Ask | Dear colleague, I am looking for the recorded composite z-score of the following molecule: CC(C)C(O)C1C=CC2C(=O)N(C)C(=O)C2N1N(c1ccccc1)c1ccccc1 (stereo not drawn)
Reply | 0.23

----------
test: CREB reporter modulators under forskolin, primary screen, cell-based, PC12, CRE-LacZ reporter, forskolin-stimulated (AID 1146); details: luminescence, 4.5 h, higher = more signal, called active from +8 up or from −8 down;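 note: PC12 cells with 6xCRE LacZ reporter stimulated by forskolin 10 µM; beta-galactosidase reporter signal reflecting CREB driven transcription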
Reported z-score values are given for each entry in this list.
Quick one: just the number, no unit, thanks!

compound | z-score
Cc1ccc(S[C@]2(C(=O)NC(C)C)CC(=O)N(Cc3ccccc3C(F)(F)F)[C@@H]2c2ccc(CO)cc2I)cc1 | 1.12
CC[C@H]1C2=C3C(CC[C@H]4C(OCc5ccc(F)cc5C(F)(F)F)OC[C@](C)([C@@H]34)N(C(=O)OC(C)(C)C)C2)C2COC(=O)OCC21 (stereo partly drawn) | 0.204

Next up:
Ask | Dear colleague, I am looking for the recorded z-score of the following compound: COCCOC(=O)N1C(=O)[C@@]2(c3cc(C#CCNC(N)=O)ccc31)[C@H](C(=O)N1CCCCCCC1)[C@H]1C(=O)O[C@H](c3ccccc3)[C@H](c3ccccc3)N1[C@@H]2c1ccc(O)cc1
Reply | -0.333

----------
experiment: PSAC antagonists in infected red cells, primary screen, cell-based, P. falciparum Indochina, OD700, 1 h (AID 1154); settings: P. falciparum Indochina infected RBC osmotic lysis, higher = more signal, called active from +8 up or from −8 down
Is z-score at least 4? Then true (1). If not, false (0).

Take a look at these entries with their results.
compound | labelClass
Cc1ccc(C(C)CC(O)C2C=CC3C(=O)N(c4ccccc4)C(=O)C3N2Nc2ccc(C(C)C)cc2)o1 (configuration not stated) | false (0)
CN1C(=O)C2C=CC(C(O)c3c(F)cccc3Cl)N(Nc3ccccc3)C2C1=O (configuration not stated) | false (0)
COCCOC(=O)N1C(=O)[C@@]2(c3cc(C#Cc4ccc(OC)cc4)ccc31)[C@H](C(=O)NC[C@H](O)c1ccccc1)[C@H]1C(=O)O[C@H](c3ccccc3)[C@H](c3ccccc3)N1[C@@H]2c1ccc(O)cc1 | false (0)
COc1ccc(NN2C(C(O)c3ccccn3)C=CC3C(=O)N(C4CCCCC4)C(=O)C32)cc1 (configuration not stated) | false (0)
C=CCOC(=O)[C@@H]1[C@H]2C(=O)O[C@H](c3ccccc3)[C@H](c3ccccc3)N2[C@H](c2ccc(OCCOC(=O)[C@H]3C[C@H]4C(=O)N[C@@H](CCCC[N+](C)(C)C)C(=O)N4[C@H]3c3ccc(O)cc3)cc2)[C@@]12C(=O)Nc1ccc(I)cc12 | false (0)
Cc1ccc(F)cc1S(=O)(=O)N[C@@H]1CCN(Cc2ccc(Oc3ccccc3)cc2)C1 | true (1)
Cc1ccc(S[C@]2(C(=O)NCc3ccccc3)CC(=O)N(C(C)C)[C@@H]2c2ccc(CO)cc2I)cc1 | true (1)
COc1ccccc1CN1C(=O)c2ccccc2[C@@H](C(=O)NC(C)C)[C@@H]1c1ccc(CO)cc1 | false (0)
CN1C(=O)[C@@]2(CCS(=O)(=O)c3ccccc3)N=C(c3ccc(OCCCO)cc3)O[C@H]2c2ccccc21 | true (1)
CN(C)CCCNC(=O)[C@@]1(c2ccc([N+](=O)[O-])cc2)CC(=O)N(CC23CC4CC(CC(C4)C2)C3)[C@@H]1c1ccc(CO)cc1 | false (0)

Ask | Form field: z-score at least 4? Entry: O=C1O[C@@H](c2ccccc2)[C@@H](c2ccccc2)N2[C@@H](c3ccc(O)cc3)[C@]3(C(=O)Nc4ccccc43)[C@@H](C(=O)Nc3nc4ccccc4s3)[C@H]12
Reply | false (0)

Ask | Form field: z-score at least 4? Entry: C=C(/C(=C/C[C@@H](OC(=O)c1ccncc1)c1ccc(OCCO)cc1)c1cc(C(=O)OC)ccc1OC)C(C)C
Reply | true (1)

Ask | Form field: z-score at least 4? Entry: CN(C)CCCCNC(=O)[C@H]1C[C@H]2C(=O)N[C@@H](CCCCN(C)C)C(=O)N2[C@H]1c1cccc(OCCO)c1
Reply | false (0)
